Data provenance is patent US12251373B2.

measured.target: mouse P23H opsin mutant (Mus musculus, UniProt P15409, P23H)
test: β-Gal fragment complementation assay: rescue of P23H opsin transport from ER to plasma membrane, U2OS(PLC-EA/P23H-PK) cells
Format: cell-based
measurement.conditions: Table 1; scores relative to 9-cis-retinal; read-out: β-Gal fragment complementation assay Activity score (%) EC50
pEC50: −log10 of the molar value.
Measured pEC50 by item

>  <molecule>
CC1=C(/C=C/C(C)=C\C=C\C(C)=C\C=O)C(C)(C)CCC1 [9-cis-retinal, reference compound]

>  <measured.target>
mouse P23H opsin mutant (Mus musculus, UniProt P15409, P23H)

>  <pEC50>
5.57

$$$$
>  <molecule>
O=C(CCCCCN1C(=O)c2cccc3cccc(c23)C1=O)NO [Scriptaid, reference compound]

>  <measured.target>
mouse P23H opsin mutant (Mus musculus, UniProt P15409, P23H)

>  <pEC50>
5.51

$$$$
>  <molecule>
O=C1OCC(c2ccc(Cl)s2)=C1c1cccs1

>  <measured.target>
mouse P23H opsin mutant (Mus musculus, UniProt P15409, P23H)

>  <pEC50>
5.06

$$$$

---

measured.target: rod opsin (Mus musculus)
test: cAMP quantification assay in NIH3T3-(WT-opsin/GFP) cells
measurement.conditions: either in the dark or light; read-out: EC50 of dose-dependent increase in cAMP levels
property.measured: EC50

>  <molecule>
O=C1OCC(c2ccc(Cl)s2)=C1c1cccs1 [YC-001]

>  <endpoint.result>
8.22 µM

$$$$

---

measured.target: mouse P23H opsin (Mus musculus, UniProt P15409, P23H)
Construct: expressed in transfected cells
test: Immunostain and image-based high-content analysis of P23H mutant opsin in NIH3T3 cells
Format: cell-based
measurement.conditions: ratio of P23H rod opsin fluorescence on plasma membrane to whole cell; read-out: Immunostaining HCS MEM-Total ratio EC50
Reported EC50 values for the following compounds.

>  <smiles>
Cc1cc(OCC(=O)Nc2cc(N3CCOCC3)ncn2)cc(C)c1Cl

>  <measured.target>
mouse P23H opsin (Mus musculus, UniProt P15409, P23H)

>  <EC50>
1.07 µM

$$$$
>  <smiles>
O=C(NCCCn1cccc1)c1cc(-c2ccccc2)on1

>  <measured.target>
mouse P23H opsin (Mus musculus, UniProt P15409, P23H)

>  <EC50>
1.33 µM

$$$$
>  <smiles>
O=C(Cn1c2c(c(=O)n(C3CCCCC3)c1=O)CCC2)Nc1cccc(F)c1

>  <measured.target>
mouse P23H opsin (Mus musculus, UniProt P15409, P23H)

>  <EC50>
6.76 µM

$$$$
>  <smiles>
O=C(NCC#CCN1CCCC1)c1cc(-c2ccccc2)on1

>  <measured.target>
mouse P23H opsin (Mus musculus, UniProt P15409, P23H)

>  <EC50>
4.2 µM

$$$$

---

measured.target: mouse P23H opsin mutant (Mus musculus, UniProt P15409, P23H)
test: β-Gal fragment complementation assay: rescue of P23H opsin transport from ER to plasma membrane, U2OS(PLC-EA/P23H-PK) cells
Format: cell-based
measurement.conditions: Table 3, modifications at C4 of the furan-2(5H)-one ring; read-out: Potency
pEC50: −log10 of the molar value.

>  <compound>
O=C1OCC(c2ccc(Cl)cc2)=C1c1cccs1 [YC-003]

>  <pEC50>
4.66

$$$$
>  <compound>
O=C1OCC(c2ccc(F)cc2)=C1c1cccs1 [YC-044]

>  <pEC50>
4.42

$$$$
>  <compound>
O=C1OCC(c2cccs2)=C1c1cccs1 [YC-002]

>  <pEC50>
4.48

$$$$
>  <compound>
O=C1OCC(c2ccc(F)s2)=C1c1cccs1 [YC-021]

>  <pEC50>
3.99

$$$$

---

measured.target: mouse P23H opsin mutant (Mus musculus, UniProt P15409, P23H)
test: β-Gal fragment complementation assay: rescue of P23H opsin transport from ER to plasma membrane, U2OS(PLC-EA/P23H-PK) cells
Type: cell-based
measurement.conditions: HTS hit confirmation, FIG. 1E; read-out: potency
Experimental: U2OS(PLC-EA/P23H-PK) cells. A U2OS stable cell line was generated by DiscoveRx, Inc. (Fremont, CA, USA) for the β-Gal fragment complementation assay used in the small molecule HTS for rescue of P23H opsin transport. […] Briefly, U2OS(PLC-EA/P23H-PK) cells were suspended in assay medium at 3×10^5 cells mL^−1. […] Assay plates were incubated in the dark for 60-90 min, and luminescence was read from each assay plate with an Envision microplate reader (PerkinElmer) during a 0.1 s per well integration time. […]

>  <smiles>
O=C1OCC(c2ccc(Cl)s2)=C1c1cccs1

>  <measured.target>
mouse P23H opsin mutant (Mus musculus, UniProt P15409, P23H)

>  <EC50, µM>
7.8

$$$$

---

measured.target: mouse P23H opsin mutant (Mus musculus, UniProt P15409, P23H)
test: β-Gal fragment complementation assay: rescue of P23H opsin transport from ER to plasma membrane, U2OS(PLC-EA/P23H-PK) cells
Type: cell-based
measurement.conditions: U2OS; Table 1; fitted maximum; read-out: β-Gal fragment complementation assay Activity score (%) Max (fit)
property.measured: Emax

>  <molecule>
O=C(CCCCCN1C(=O)c2cccc3cccc(c23)C1=O)NO [Scriptaid, reference compound]

>  <endpoint.result>
98.2%

$$$$
>  <molecule>
O=C(C1CC1)N(CCn1cccn1)c1nc2c(Cl)cccc2s1

>  <endpoint.result>
230%

$$$$
>  <molecule>
O=C(Cn1c2c(c(=O)n(C3CCCCC3)c1=O)CCC2)Nc1cccc(F)c1

>  <endpoint.result>
165%

$$$$
>  <molecule>
O=C(NCCCOc1cccc2cccnc12)c1cc(-c2ccccc2)on1

>  <endpoint.result>
51.6%

$$$$
>  <molecule>
O=C1OCC(c2ccc(Cl)s2)=C1c1cccs1

>  <endpoint.result>
310%

$$$$
>  <molecule>
CC1=C(/C=C/C(C)=C\C=C\C(C)=C\C=O)C(C)(C)CCC1 [9-cis-retinal, reference compound]

>  <endpoint.result>
159%

$$$$
>  <molecule>
O=C(NCCCn1cccc1)c1cc(-c2ccccc2)on1

>  <endpoint.result>
37.3%

$$$$
>  <molecule>
O=C(NCCn1ncc2c(NCc3ccco3)ncnc21)c1cc(-c2ccccc2)on1

>  <endpoint.result>
31.5%

$$$$
>  <molecule>
Cc1cc(OCC(=O)Nc2cc(N3CCOCC3)ncn2)cc(C)c1Cl

>  <endpoint.result>
234%

$$$$
>  <molecule>
COCCNC(=O)c1sc2c(cnc3ccc(OC)cc32)c1-c1ccccc1

>  <endpoint.result>
155%

$$$$
>  <molecule>
O=C(NCC#CCN1CCCC1)c1cc(-c2ccccc2)on1

>  <endpoint.result>
25.2%

$$$$

---

measured.target: mouse P23H opsin (Mus musculus, UniProt P15409, P23H)
Construct: expressed in transfected cells
test: Immunostain and image-based high-content analysis of P23H mutant opsin in NIH3T3 cells
Assay type: cell-based
measurement.conditions: ratio of P23H rod opsin fluorescence on plasma membrane to whole cell; 1440 min; read-out: Immunostaining HCS MEM-Total ratio EC50
// reported EC50 for each item listed
property.measured: EC50 (µM)

>  <compound>
O=C(CCCCCN1C(=O)c2cccc3cccc(c23)C1=O)NO [Scriptaid, reference compound]

>  <property.measured>
EC50

>  <endpoint.result>
0.38

$$$$
>  <compound>
O=C1OCC(c2ccc(Cl)s2)=C1c1cccs1

>  <property.measured>
EC50

>  <endpoint.result>
2.75

$$$$
>  <compound>
CC1=C(/C=C/C(C)=C\C=C\C(C)=C\C=O)C(C)(C)CCC1 [9-cis-retinal, reference compound]

>  <property.measured>
EC50

>  <endpoint.result>
0.377

$$$$

---

Recorded measurements of EC50, one per entry
measured.target: mouse P23H opsin mutant (Mus musculus, UniProt P15409, P23H)
test: β-Gal fragment complementation assay: rescue of P23H opsin transport from ER to plasma membrane, U2OS(PLC-EA/P23H-PK) cells
Format: cell-based
measurement.conditions: Table 5, more than one site modified; read-out: Potency

>  <compound>
O=C1OCC(c2ccc(Cl)s2)=C1c1cccs1 [YC-001]

>  <EC50 [µM]>
8.39

$$$$
>  <compound>
O=C1OCC(c2ccc(Br)s2)=C1c1ccc(F)cc1 [YC-009]

>  <EC50 [µM]>
7.2

$$$$
>  <compound>
O=C1OCC(c2ccc(Br)s2)=C1c1ccc(Cl)c(Cl)c1 [YC-008]

>  <EC50 [µM]>
25

$$$$
>  <compound>
O=C1OCC(c2ccc(Br)s2)=C1c1ccc(Cl)cc1 [YC-011]

>  <EC50 [µM]>
7.5

$$$$

---

measured.target: mouse P23H opsin (Mus musculus, UniProt P15409, P23H)
Construct: expressed in transfected cells
test: Immunostain and image-based high-content analysis of P23H mutant opsin in NIH3T3 cells
Format: cell-based
measurement.conditions: ratio of P23H rod opsin fluorescence on plasma membrane to whole cell
property.measured: Immunostaining HCS MEM-Total ratio Max (fit)

>  <molecule>
O=C(NCCCOc1cccc2cccnc12)c1cc(-c2ccccc2)on1

>  <endpoint.result>
0.041

$$$$
>  <molecule>
O=C(CCCCCN1C(=O)c2cccc3cccc(c23)C1=O)NO [Scriptaid, reference compound]

>  <endpoint.result>
0.070

$$$$
>  <molecule>
O=C(NCCn1ncc2c(NCc3ccco3)ncnc21)c1cc(-c2ccccc2)on1

>  <endpoint.result>
0.031

$$$$
>  <molecule>
O=C(NCC#CCN1CCCC1)c1cc(-c2ccccc2)on1

>  <endpoint.result>
0.063

$$$$
>  <molecule>
O=C1OCC(c2ccc(Cl)s2)=C1c1cccs1

>  <endpoint.result>
0.030

$$$$
>  <molecule>
O=C(NCCCn1cccc1)c1cc(-c2ccccc2)on1

>  <endpoint.result>
0.021

$$$$
>  <molecule>
COCCNC(=O)c1sc2c(cnc3ccc(OC)cc32)c1-c1ccccc1

>  <endpoint.result>
0.046

$$$$
>  <molecule>
CC1=C(/C=C/C(C)=C\C=C\C(C)=C\C=O)C(C)(C)CCC1 [9-cis-retinal, reference compound]

>  <endpoint.result>
0.019

$$$$
>  <molecule>
O=C(C1CC1)N(CCn1cccn1)c1nc2c(Cl)cccc2s1

>  <endpoint.result>
0.010

$$$$
>  <molecule>
Cc1cc(OCC(=O)Nc2cc(N3CCOCC3)ncn2)cc(C)c1Cl

>  <endpoint.result>
0.022

$$$$
>  <molecule>
O=C(Cn1c2c(c(=O)n(C3CCCCC3)c1=O)CCC2)Nc1cccc(F)c1

>  <endpoint.result>
0.025

$$$$
